B1: Twister Ribozyme (parent)
chain: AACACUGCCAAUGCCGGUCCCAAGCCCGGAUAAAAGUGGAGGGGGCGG

Variants of: B1
Assay: self-cleavage, relative activity (ratio to wild type); higher = more cleavage; co-transcriptional
Measured self-cleavage, listed per entry for reference.
Respond numerically, and do not add a unit to the figure.

Worked set:
AACACUGCCAAUGCUGGUCCCAAGCCCGGAUAAAAGUGGUGGGGGCGG 0.15
AACACUGCCAAUGCCGGUCCCAAGUCCGGAUAAAAUUGGAGGGGGCGG 0.123
AACACUGACAAUGCCGGUCCCAAGCCCGGAUAAAAGUGGGGGGGGCGG 0.17
AACACUGCCAAUGCCGGGCCCAAGACCGGAUAAAAGUGGAGGGGGCGG 0.138
AACACUGCCAAUGCCGGUCCCAAGCCCGGAUAAAAGCAGAGGGGGCGG 0.166

Lab note: measured self-cleavage of AACACUCCCAAUGACGGUCCCAAGCCCGGAUAAAAGUGGAGGGGGCGG was 0.0617

Lab note: measured self-cleavage of AACACUGCCAAUGCUGGUCCCAAGCCCGGAUAAAAGUGGAGGGGGCGG was 0.975

Lab note: measured self-cleavage of AACACUGCCAAUGCCGGUCCCAAGCCCGAAUAAAAGUGGAGGUGGCGG was 0.326

Lab note: measured self-cleavage of AACACUGCCAAUGCUGGUCACAAGCCCGGAUAAAAGUGGAGGGGGCGG was 0.176

Lab note: measured self-cleavage of AACACUGCCAAUGCCGGUCCCAAGCCCGGAUAAAAGUGAAGGGGGCAG was 0.363

Lab note: measured self-cleavage of AACCCUGCCAAUGCCGGUCCCUAGCCCGGAUAAAAGUGGAGGGGGCGG was 0.0826

Lab note: measured self-cleavage of AACACUGCCAAUGCCGGUGCCAAGCCCGGAUAAAAGUGUAGGGGGCGG was 0.118
